Reference source for all entries: PubChem BioAssay (NCI)

Exercise: for every item that follows, state its recorded growth inhibition.
assay: NCI Yeast Anticancer Drug Screen. Data for the mlh1 rad18 strain (AID 175); conditions: S. cerevisiae mlh1 rad18 strain growth inhibition; at 50.0 µM (retest, dose inferred, filed as 5.0); stronger effect = higher value
The panel holds about 79,000 compounds, 15% with a hit somewhere; the sample as a whole holds those more often. Activity calls are given as the source filed them. No stated cut-off is given here; in the data, active means growth inhibition above about 70%; inactive means the rest. *1 amine or outer side, *2 acyl side, *3 side chain or, on linkers, in order; H or OH if unused. Where a SMILES comes first, the peptide text is derived from it. Bridges are numbered along the chain shown (N, C = ends). Roman numbers before positions name the chains, in order. [ ]: non-standard residue; d: D form. Actinocin(9to1) = Cc1c2oc3c(C)ccc(C(=O)[*:1])c3nc-2c(C(=O)[*:2])c(N)c1=O; NMeV = CN[CH](C(=O)O)C(C)C; Pip = O=C(O)[CH]1CCCCN1; Sar = CNCC(=O)O

// growth inhibition value for CCN(CC)CCC(=O)NC1c2ccc(Cl)cc2Oc2c(C)cccc21 (stereo not drawn) : 44% (inactive)

// growth inhibition value for `CCCCCCC(/C=C/c1ccccc1)=N\O` : 95% (active)

// growth inhibition value for CC(=O)OCC1OC(n2cnc3c(Cl)nc(Cl)nc32)C(OC(C)=O)C1OC(C)=O (stereo not drawn) : 0% (inactive)

// growth inhibition value for `COc1ccc(-c2ccccc2)cc1SCCC(=O)O` : 20% (inactive)

// growth inhibition value for Cc1c2oc3c(C)ccc(C(=O)NC4C(=O)NC(C(C)C)C(=O)N5CCCCC5C(=O)N(C)CC(=O)N(C)C(C(C)C)C(=O)OC4C)c3nc-2c(C(=O)NC2C(=O)NC(C(C)C)C(=O)N3CCCCC3C(=O)N(C)CC(=O)N(C)C(C(C)C)C(=O)OC2C)c(N)c1=O (stereo not drawn) (I: TV[Pip][Sar][NMeV] / II: TV[Pip][Sar][NMeV]; ester I:1-I:C, II:1-II:C; linker I:N-II:N via Actinocin(9to1); configuration not given here) : 79% (active)

// growth inhibition value for `CCc1ccccc1NC1=C(Cl)C(=O)c2ccccc2C1=O` : 98% (active)

// growth inhibition value for `COc1cccc(/C=N/NC(=O)c2c(-c3ccccc3)noc2C)c1O` : 87% (active)

// growth inhibition value for `CCCCCCCCCCCCCCCCCC[N+](C)(C)Cc1ccc(C[N+](C)(C)CCCCCCCCCCCCCCCCCC)cc1` : 26% (inactive)

// growth inhibition value for `COc1ccc(OC)c(C[P+](c2ccccc2)(c2ccccc2)c2ccccc2)c1` : 99% (active)

// growth inhibition value for `COC(=O)/C(=C/c1ccc(/C=C(/C(=O)O)c2ccc(OC)cc2)o1)c1ccccc1` : 99% (active)

// growth inhibition value for `O=C1N=c2ccc(Br)cc2=C1c1sc(=O)n(Cc2nc3ccccc3[nH]2)c1O` : 38% (inactive)

// growth inhibition value for `CO/C(=N\N=C(/c1ccccc1)C(F)(F)F)c1ccncc1` : 66% (inactive)

// growth inhibition value for `OCCN(CCO)c1cc(/C=C/c2ccnc3ccccc23)nc2ccccc12` : 35% (inactive)

// growth inhibition value for `Cc1c(O)/c(=C\O)c2nc3c(=O)ccc(C(=O)NCCN(C)C)c3[nH]c2c1=O` : 96% (active)

// growth inhibition value for `CN1CCN(CCCCN2c3ccccc3Sc3ccc(C(=O)c4ccccc4)cc32)CC1` : 37% (inactive)

// growth inhibition value for Cc1cc(O)c2c(c1)OC1(C)CCC3C(C)(C)CCCC34COC2C14 (stereo not drawn) : 97% (active)

// growth inhibition value for `Nc1nc(=Nc2ccccc2)ss1` : 99% (active)

// growth inhibition value for CC1SC2(C(=O)Nc3ccc(Br)cc32)N(c2ccc(Cl)cc2)C1=O (stereo not drawn) : 99% (active)
